Assay: Mean residence time in rat at 0.5 mg/kg, iv
Assay type: ADME, organism-based
Parameters: dose 0.5 mg/kg, route intravenous
Details: in vivo
# MRT values compiled below

compound: CC(=O)N[C@@H]1CC2(CCN(Cc3ccc4[nH]c5ccc(Cl)cc5c4c3)CC2)c2ccccc21
MRT [h]: 9.2
--
compound: O[C@@H]1Cc2ccccc2C12CCN(Cc1ccc3[nH]c4ccccc4c3c1)CC2
MRT [h]: 2.8
--
compound: CC(=O)N[C@@H]1CC2(CCN(Cc3ccc4[nH]c5ccccc5c4c3)CC2)c2ccccc21
MRT [h]: 18.2
--
compound: CC(=O)N[C@@H]1CC2(CCN(Cc3ccc4c(c3)c3ccccc3n4C(N)=O)CC2)c2ccccc21
MRT [h]: 18
--
compound: CCn1c2ccccc2c2cc(CN3CCC4(CC3)c3ccccc3[C@H](NC(C)=O)[C@H]4O)ccc21 (racemic)
MRT [h]: 14.2

====

# key: entry, value: pIC50
Biological target: Melanin-concentrating hormone receptor 2 (Homo sapiens, UniProt Q969V1)
Sequence (Q969V1 whole entry): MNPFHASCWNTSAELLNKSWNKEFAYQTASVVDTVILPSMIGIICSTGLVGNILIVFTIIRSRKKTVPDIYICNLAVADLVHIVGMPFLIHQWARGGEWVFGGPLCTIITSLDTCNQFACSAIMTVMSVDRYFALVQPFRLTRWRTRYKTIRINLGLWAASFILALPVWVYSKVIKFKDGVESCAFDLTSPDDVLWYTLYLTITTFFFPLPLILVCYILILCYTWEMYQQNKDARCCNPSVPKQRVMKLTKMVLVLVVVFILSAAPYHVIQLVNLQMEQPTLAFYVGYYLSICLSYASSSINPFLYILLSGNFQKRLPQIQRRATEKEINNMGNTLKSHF
Assay: Antagonist activity at human MCHR2 receptor expressed in CHO cells assessed as inhibition of MCH-stimulated Ca2+ flux preincubated for 10 mins prior to MCH-stimulation by FLIPR assay
pIC50: −log10 of the molar value.

compound: CCn1c2ccccc2c2cc(CN3CCC4(CC3)CC(O)c3ccccc34)ccc21 (racemic)
pIC50: 6.70
--
compound: CC(=O)n1c2ccccc2c2cc(CN3CCC4(C=Cc5ccccc54)CC3)ccc21
pIC50: 7.15
--
compound: CCn1c2ccccc2c2cc(CN3CCC4(CC3)c3ccccc3CC4O)ccc21 (racemic)
pIC50: 7.52
--
compound: CC(=O)N[C@H]1CC2(CCN(Cc3ccc4[nH]c5ccccc5c4c3)CC2)c2ccccc21
pIC50: 7.89
--
compound: CC(=O)N[C@@H]1CC2(CCN(Cc3ccc4[nH]c5ccc(F)cc5c4c3)CC2)c2ccccc21
pIC50: 8.00

====

Test: Oral bioavailability in rat at 2 mg/kg
Format: ADME, organism-based
Conditions: in vivo

molecule: CC(=O)N[C@@H]1CC2(CCN(Cc3ccc4c(c3)c3ccccc3n4C(N)=O)CC2)c2ccccc21
bioavailability (%): 37
//
molecule: CC(=O)N[C@@H]1CC2(CCN(Cc3ccc4[nH]c5ccc(Cl)cc5c4c3)CC2)c2ccccc21
bioavailability (%): 49
//
molecule: CC(=O)N[C@@H]1CC2(CCN(Cc3ccc4[nH]c5ccccc5c4c3)CC2)c2ccccc21
bioavailability (%): 7.5
//
molecule: CCn1c2ccccc2c2cc(CN3CCC4(CC3)c3ccccc3[C@H](NC(C)=O)[C@H]4O)ccc21 (racemic)
bioavailability (%): 9
//
molecule: O[C@@H]1Cc2ccccc2C12CCN(Cc1ccc3[nH]c4ccccc4c3c1)CC2
bioavailability (%): 5.9

====

Assay: Oral bioavailability in rhesus monkey at 2 mg/kg
Format: ADME, organism-based, Macaca mulatta
Conditions: in vivo

smilesText: CC(=O)N[C@@H]1CC2(CCN(Cc3ccc4c(c3)c3ccccc3n4C(N)=O)CC2)c2ccccc21
bioavailability (%): 47

====

Target: UniProt P31645
Sequence (P31645 whole entry): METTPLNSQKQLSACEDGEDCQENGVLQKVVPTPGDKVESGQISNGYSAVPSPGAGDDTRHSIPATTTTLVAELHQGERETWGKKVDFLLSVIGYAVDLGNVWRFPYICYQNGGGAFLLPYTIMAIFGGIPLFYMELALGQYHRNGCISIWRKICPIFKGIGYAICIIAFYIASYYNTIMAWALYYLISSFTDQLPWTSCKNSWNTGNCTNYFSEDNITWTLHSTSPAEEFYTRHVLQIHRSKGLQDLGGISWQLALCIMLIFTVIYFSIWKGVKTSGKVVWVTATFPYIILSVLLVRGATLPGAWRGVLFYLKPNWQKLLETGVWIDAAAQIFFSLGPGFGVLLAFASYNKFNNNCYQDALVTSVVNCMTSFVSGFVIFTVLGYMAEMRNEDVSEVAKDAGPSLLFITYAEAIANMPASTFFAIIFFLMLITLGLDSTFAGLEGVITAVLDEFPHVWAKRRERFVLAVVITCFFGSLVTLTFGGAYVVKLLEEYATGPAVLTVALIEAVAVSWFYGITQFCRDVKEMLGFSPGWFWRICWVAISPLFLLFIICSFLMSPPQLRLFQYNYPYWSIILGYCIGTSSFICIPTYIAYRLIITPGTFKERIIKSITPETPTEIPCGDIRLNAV
Entries and their measured IC50 follow.
valueKind: IC50

smilesText: CC(=O)N[C@@H]1CC2(CCN(Cc3ccc4c(c3)c3ccccc3n4C(N)=O)CC2)c2ccccc21
measured: 10 µM
//
smilesText: CC(=O)N[C@@H]1CC2(CCN(Cc3ccc4[nH]c5ccc(Cl)cc5c4c3)CC2)c2ccccc21
measured: 0.1 µM

Values compiled from ChEMBL document CHEMBL1932960.
